- assayed system: human PLC-β2 (Homo sapiens, UniProt Q00722)
- Sequence (Q00722 whole entry): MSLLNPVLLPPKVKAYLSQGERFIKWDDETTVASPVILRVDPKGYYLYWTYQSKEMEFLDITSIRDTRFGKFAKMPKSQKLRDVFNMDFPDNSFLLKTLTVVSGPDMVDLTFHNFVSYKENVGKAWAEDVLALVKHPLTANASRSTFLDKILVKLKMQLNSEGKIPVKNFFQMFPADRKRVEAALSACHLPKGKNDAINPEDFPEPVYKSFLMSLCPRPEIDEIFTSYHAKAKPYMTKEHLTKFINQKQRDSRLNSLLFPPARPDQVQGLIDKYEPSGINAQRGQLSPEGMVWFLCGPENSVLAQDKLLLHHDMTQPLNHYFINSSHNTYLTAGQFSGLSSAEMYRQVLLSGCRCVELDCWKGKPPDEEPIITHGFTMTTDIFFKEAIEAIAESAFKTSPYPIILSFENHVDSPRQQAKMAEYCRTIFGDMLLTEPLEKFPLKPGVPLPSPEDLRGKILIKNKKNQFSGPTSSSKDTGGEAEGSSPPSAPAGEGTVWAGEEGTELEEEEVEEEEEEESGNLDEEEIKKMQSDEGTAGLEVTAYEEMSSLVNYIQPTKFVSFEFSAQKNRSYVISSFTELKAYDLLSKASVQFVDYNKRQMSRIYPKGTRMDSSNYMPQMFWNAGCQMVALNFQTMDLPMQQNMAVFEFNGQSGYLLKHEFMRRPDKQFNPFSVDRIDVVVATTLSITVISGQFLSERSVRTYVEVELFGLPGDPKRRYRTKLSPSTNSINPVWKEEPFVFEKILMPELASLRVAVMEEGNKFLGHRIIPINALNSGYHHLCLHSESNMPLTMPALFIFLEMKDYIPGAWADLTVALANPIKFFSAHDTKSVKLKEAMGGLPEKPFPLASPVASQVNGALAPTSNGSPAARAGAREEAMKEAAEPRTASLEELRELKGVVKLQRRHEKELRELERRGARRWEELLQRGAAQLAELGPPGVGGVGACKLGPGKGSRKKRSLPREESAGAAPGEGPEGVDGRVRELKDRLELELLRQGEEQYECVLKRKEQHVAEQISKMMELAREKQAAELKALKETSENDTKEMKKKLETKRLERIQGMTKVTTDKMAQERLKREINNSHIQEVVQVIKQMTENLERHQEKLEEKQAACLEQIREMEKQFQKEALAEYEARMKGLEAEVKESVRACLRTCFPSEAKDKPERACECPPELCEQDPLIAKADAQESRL
- protocol: PLC assay using FlashPlates (96-well, immobilized [3H]PIP2 substrate)
- condition parameters: purified recombinant human PLC-β2 or cytosolic human PLC-β2; hydrolysis of [3H]PIP2
experimental endpoint: IC50

Checklist item: IC50 tested on human PLC-β2 (Homo sapiens, UniProt Q00722), entry NC(=O)c1ccc(N2CCN(C(c3ccccc3)c3ccccc3)CC2)c(NC(=O)Nc2ccccc2)c1 [Cpd 8] , value?
1200 nM

So what IC50 did O=C(Nc1ccccc1)Nc1cc(C(=O)N2CCNCC2)ccc1N1CCN(C(c2ccccc2)c2ccc(Cl)cc2)CC1 (stereo not drawn) [Cpd 60] get with human PLC-β2 (Homo sapiens, UniProt Q00722)?
950 nM

Notebook: pull reported IC50 for human PLC-β2 (Homo sapiens, UniProt Q00722), entry O=C(Nc1ccccc1)Nc1ccc(C(=O)N2CCNCC2)cc1N1CCN(C(c2ccccc2)c2ccccc2)CC1 [Cpd 91]
1300 nM

Kindly state the measured IC50 obtained for CC(c1ccccc1)N1CCN(c2ccc(C(=O)N3CCNCC3)cc2NC(=O)NC2CCCCC2)CC1 (stereo not drawn) [Cpd 53] with human PLC-β2 (Homo sapiens, UniProt Q00722).
> 25000 nM

Which measured IC50 belongs to COc1ccccc1NC(=O)Nc1cc(C(=O)N2CCNCC2)ccc1N1CCN(C(c2ccccc2)c2ccccc2)CC1 [Cpd 59] , tested on human PLC-β2 (Homo sapiens, UniProt Q00722)?
5400 nM

State its IC50 on human PLC-β2 (Homo sapiens, UniProt Q00722): O=C(Nc1cc(C(=O)N2CCNCC2)ccc1N1CCN(Cc2ccccc2)CC1)NC1CCCCC1 [Cpd 52]
> 25000 nM
